Cited source for all entries: PubChem BioAssay (NCI)

Exercise: state measured growth for each of the compounds provided.
Tested on: NCI-H322M lung
assay info: NCI-60 one-dose screen, 48 h (100 = growth as untreated, 0 = no growth, -100 = all killed)
test parameters: 10 µM
The panel holds about 83,000 compounds, 20% with a hit somewhere; the sample as a whole holds those more often.
Give bare numbers, in %.

Worked cases, answers included:
> print(dat)
                                   compound  endpoint.unit  measured.result
1             CCn1nc(-c2ccccn2)c2cccnc2c1=S              %             87.3
2  CC(C)=C1CCC(C)C/C1=N\N=C(N)N (centres undefined)              %             97.1
3                         CC(=O)CS(C)(=O)=O              %              113

Fill in growth for each of the 5 compounds listed.
1. Fc1cc(-c2ncc(-c3cc(F)c(F)c(F)c3)c(NC3CCCCCC3)n2)cc(F)c1F
2. COc1cc(C2CC(=O)Nc3c2c(C)nn3-c2nc3ccccc3[nH]2)cc(OC)c1O (centres undefined)
3. CC(C)OP(=O)(O)c1ncc(-c2ccc(C(F)(F)F)cc2)c(NC2CCCCCC2)n1
4. CCC(CCNc1cc(OC)cc2cccnc12)CN1C(=O)c2ccccc2C1=O (centres undefined)
5. CCc1ccc(Nc2cc(C)nc3nc(C)nn23)cc1

[102, 80.4, 91.1, 112, 61.7]

Fill in growth for each of the 3 compounds listed.
1. CCCCCCCCCCCC(=O)NCCCN(C)C
2. Nc1nc(SCC#CCCl)c2[nH]cnc2n1
3. CC(=O)OCC(COC(C)=O)(COC(C)=O)COC(C)=O

[97.1, 62.7, 99.5]

###

Test system: UO-31 renal
assay info: NCI-60 one-dose screen, 48 h (100 = growth as untreated, 0 = no growth, -100 = all killed)
test parameters: 10 µM
This is part of a sample that, as a whole, favours compounds with a hit. Of some 83,000 tested, about 20% had one in any assay. Activity calls are given as the source filed them. How the source made its calls: active means growth percent below 10; inactive means the rest.
quantity: growth

Fill in growth for each of the 8 molecules listed.
1. C[C@]12CC[C@H]3[C@@H](CC=C4C[C@@H](O)CC[C@@]43C)[C@@H]1CC[C@@H]2C(=O)C/C=N/O
2. N#CC1C=Cc2c(ccc3ccccc23)N1C(=O)c1ccccc1 (stereo unspecified)
3. CCn1nc(-c2ccccn2)c2cccnc2c1=S
4. Nc1nsc(C(=O)c2ccc(O)cc2)n1
5. COc1ccc(-c2cc(=O)n(-c3nc4ccccc4[nH]3)[nH]2)cc1OC
6. Cc1ccc(C)c2c1sc1nc3n[nH]c(N)c3c(=N)n12
7. CCCOCC(O)CNCCN (stereo unspecified)
8. C=CCn1ccc(=O)nc1SC

["-94.6% (active)", "38.2% (inactive)", "77.3% (inactive)", "79.5% (inactive)", "56.1% (inactive)", "85.8% (inactive)", "87.8% (inactive)", "89% (inactive)"]

Fill in growth for each of the 3 molecules listed.
1. CCC(CCNc1cc(OC)cc2cccnc12)CN1C(=O)c2ccccc2C1=O (stereo unspecified)
2. FC(F)(F)c1ccc(-c2nc(-c3nc4cc(Cl)c(Cl)cc4[nH]3)c3ccccn23)cc1
3. CCc1c(C(=O)NCc2c(O)ccc3cccc(O)c23)[nH]c(C)c1C(C)=O

["94.7% (inactive)", "58.5% (inactive)", "12.5% (inactive)"]

###

Tested on: T-47D breast
assay info: NCI-60 one-dose screen, 48 h
test parameters: 10 µM
Procedure: Growth inhibition of the T-47D human tumor cell line is measured as a screen for anti-cancer activity. Cells are grown in 96 well plates and exposed to the test compound for 48 hours. Compounds are tested at a single concentration, which is 10^-5 M for most compounds. The reported endpoint is percent growth (GI% or GIPRCNT), where numbers from 0 - 100% represent growth inhibition, and numbers from -100% - 0 represent cell death. For example, a value of 40 represents 60% growth inhibition. […]
About 83,000 compounds went through this panel and 20% of them were active in at least one assay; those are over-represented in the sample as a whole. Active and inactive are the calls of the source. Rule for the calls: active = growth percent below 10; inactive = the rest.
Valid outcomes are listed here; reply with one: active, inactive

> print(dat)
                                   molecule  assay.target  class.name
1  NC(N)=NS(=O)(=O)c1ccc(Nc2ccc3nnc(-c4ccncc4)n3n2)cc1  T-47D breast    inactive
2  CNC(=O)c1cc(Oc2ccc(NC(=O)Nc3ccc(Cl)c(OC(C)C)c3)c(F)c2)ccn1  T-47D breast      active
3    N#Cc1ncc(-c2cc(F)ccc2F)c(NC2CCCCCC2)n1  T-47D breast    inactive
4       CCOC(=O)c1sc(Nc2ncccn2)nc1-c1ccccn1  T-47D breast    inactive

Entry CCOc1nc(-c2ccccc2)cc2c(O)c(C(=O)N/N=C/c3ccc(OC)cc3)[nH]c(=O)c12 : call = ?
inactive

Entry CC(=O)Nc1ccc2c(c1)C(N1CC3CCC(CC3)C1)c1ccccc1-2 (configuration not stated) : call = ?
inactive

###

Test system: SF-268 CNS
assay info: NCI-60 one-dose screen, 48 h (100 = growth as untreated, 0 = no growth, -100 = all killed)
test parameters: 10 µM
Compounds without any hit were thinned out: in the full panel of roughly 83,000, 20% have a hit.
Exercise: state measured growth for each of the molecules provided.
Give bare numbers, in %.

Worked cases, answers included:
molecule	growth [%]
Cc1ccc(NC(=O)/C=N/O)cc1C	104
Cc1ccc(-n2nnc3c(sc4ccccc43)c2=O)cc1	39.8
CCN(Cc1ccccc1)C1CCN(Cc2cc(Br)ccc2O)CC1	65.9
O=C(OCc1ncc(-c2ccc(C(F)(F)F)cc2)c(NC2CCCCCC2)n1)c1c(F)c(F)c(F)c(F)c1F	72.5
CC(=O)N(O)c1ccc(/C=C/c2ccccc2)cc1	12.4

Fill in growth for each of the 3 molecules listed.
1. CC[C@@]1(C(N)=O)CC2C=CC1C2 (some centres not stated)
2. COc1ccc2c(=O)cc(C(Cl)(Cl)Cl)oc2c1
3. CCOC(=O)c1c(C(F)(F)F)n([O-])c2ccc(OC)cc2[n+]1=O

119
-36.4
31.1

Fill in growth for each of the 4 molecules listed.
1. c1ccc(CNc2nc(Nc3ccc(-c4nc5ccccc5[nH]4)cc3)c3cn[nH]c3n2)cc1
2. C=CCNC(=S)NN
3. COc1cc(CSc2nc3ccc(Cl)cc3c(=O)n2-c2ccccc2)cc(OC)c1OC
4. CCCCCCCCCCCC(=O)NCCCN(C)C

[22.1, 95.8, 77.7, 96.2]

Fill in growth for each of the 6 molecules listed.
1. CC(=O)Oc1c(C)c(C)c2c(c1C)CCC(C)(CC(=O)OCCCCCCCCCCC[P+](c1ccccc1)(c1ccccc1)c1ccccc1)O2 (configuration not stated)
2. NC1CCC(Nc2nc(NCc3ccc(-c4ccccc4O)nc3)c3ncn(C4CCCC4)c3n2)CC1 (configuration not stated)
3. CCCc1c(CC)c(=N)c2ccccc2n1C
4. COC(=O)C1(C(=O)OC)C2C(=O)C3C(C21)C3(C(=O)OC(C)(C)C)C(=O)OC(C)(C)C (configuration not stated)
5. O=[N+]([O-])C1CC2C=CC1C2 (configuration not stated)
6. COc1cc(Cn2c(-c3ccccc3)cc3c2-c2oncc2CC3)cc(OC)c1

-72.3
-25.8
79.5
111
89.6
30.6

Fill in growth for each of the 3 molecules listed.
1. CC(C)C[C@H](NC(=O)CCn1ccc2ccccc2c1=O)B(O)O
2. COc1ccc(-c2oncc2-c2cc(OC)c3c(c2)OCO3)cc1
3. COc1ccc2oc(=O)cc(C3c4ccc([nH]4)C(c4cc(=O)oc5ccc(OC)cc45)c4ccc([nH]4)C(c4cc(=O)oc5ccc(OC)cc45)c4ccc([nH]4)C(c4cc(=O)oc5ccc(OC)cc45)c4ccc3[nH]4)c2c1 (configuration not stated)

69.9
50.2
20.4

Return reported growth. Input molecule: COc1ccc(/C=C2\CCC3C(CCCC34OCCO4)C2=O)cc1 (configuration not stated)
97.2

###

Exercise: state measured growth for each of the compounds provided.
System: RXF 393 renal
assay info: NCI-60 one-dose screen, 48 h (100 = growth as untreated, 0 = no growth, -100 = all killed)
test parameters: 10 µM
This is part of a sample that, as a whole, favours compounds with a hit. Of some 83,000 tested, about 20% had one in any assay. Calls of active or inactive are those of the source. How the source made its calls: active means growth percent below 10; inactive means the rest.

> print(dat)
                   compound   assay.target   measured.result
1       CCCCCCCCCCCCCCCCCBr  RXF 393 renal   109% (inactive)
2  Cc1ccc(NC(=O)/C=N/O)cc1C  RXF 393 renal  99.6% (inactive)
3     O=S(=O)(O)C1(O)CCCCC1  RXF 393 renal  89.4% (inactive)

Fill in growth for each of the 8 compounds listed.
1. NS(=O)(=O)c1ccc(N2N=C(c3ccc(-c4ccccc4)cc3)CC2c2ccc(Cl)cc2)cc1 (centres undefined)
2. Cc1ccc2nc(-c3ccc(OCC(=O)N=Nc4c(O)[nH]c5ccccc45)cc3)[nH]c2c1
3. COc1ccc(-c2[nH]ncc2-c2cc(OC)c(OC)c(OC)c2)cc1
4. CC(C)c1[nH]nc2c(NCc3ccc(-c4ccccn4)cc3)nc(SCCN)nc12
5. O=[N+]([O-])c1cc2ncccc2c2ncccc12
6. COc1cc(-c2nc3ccccc3[nH]2)ccc1OCC(=O)N=Nc1c(O)[nH]c2ccccc12
7. Cc1ccc(-n2nnc3c(sc4ccccc43)c2=O)cc1
8. COc1ccc(-c2cc(=O)n(-c3nc4ccccc4[nH]3)[nH]2)cc1OC

73.4% (inactive)
102% (inactive)
0.469% (active)
-71.4% (active)
92.4% (inactive)
106% (inactive)
59.9% (inactive)
3.51% (active)
